From: patent US9255100B2

- system.name: N-terminally GST-tagged human full length recombinant Mps-1 kinase (Homo sapiens, UniProt P33981)
- Construct: N-terminally GST-tagged human full length recombinant Mps-1 kinase; purchased Invitrogen, Karslruhe, Germany PV4071
- assay.protocol: Mps-1 kinase assay (TR-FRET)
- Assay type: biochemical
- particulars: Mps1 IC50 [nM], 10 μM ATP, 1 μM peptide substrate, 60 min at 22° C.
Attribute: IC50
Dear colleague, please return just the value in nM, with no unit written.

* Cc1cc(-c2cnc3c(NCCN4CCOCC4)cc(Oc4cccc(F)c4F)nn23)ccc1C(=O)NC1CC1 | 0.3

Now look at this entry.
IN: Entry "Cc1cc(-c2cnc3c(NCCC(F)(F)F)cc(Nc4ccc(F)cc4)nn23)ccc1C(=O)NC1CC1" has what IC50?
OUT: 0.1

====

- system.name: N-terminally GST-tagged human full length recombinant Mps-1 kinase (Homo sapiens, UniProt P33981)
- Construct: N-terminally GST-tagged human full length recombinant Mps-1 kinase; purchased Invitrogen, Karslruhe, Germany PV4071
- Sequence (P33981 1-857): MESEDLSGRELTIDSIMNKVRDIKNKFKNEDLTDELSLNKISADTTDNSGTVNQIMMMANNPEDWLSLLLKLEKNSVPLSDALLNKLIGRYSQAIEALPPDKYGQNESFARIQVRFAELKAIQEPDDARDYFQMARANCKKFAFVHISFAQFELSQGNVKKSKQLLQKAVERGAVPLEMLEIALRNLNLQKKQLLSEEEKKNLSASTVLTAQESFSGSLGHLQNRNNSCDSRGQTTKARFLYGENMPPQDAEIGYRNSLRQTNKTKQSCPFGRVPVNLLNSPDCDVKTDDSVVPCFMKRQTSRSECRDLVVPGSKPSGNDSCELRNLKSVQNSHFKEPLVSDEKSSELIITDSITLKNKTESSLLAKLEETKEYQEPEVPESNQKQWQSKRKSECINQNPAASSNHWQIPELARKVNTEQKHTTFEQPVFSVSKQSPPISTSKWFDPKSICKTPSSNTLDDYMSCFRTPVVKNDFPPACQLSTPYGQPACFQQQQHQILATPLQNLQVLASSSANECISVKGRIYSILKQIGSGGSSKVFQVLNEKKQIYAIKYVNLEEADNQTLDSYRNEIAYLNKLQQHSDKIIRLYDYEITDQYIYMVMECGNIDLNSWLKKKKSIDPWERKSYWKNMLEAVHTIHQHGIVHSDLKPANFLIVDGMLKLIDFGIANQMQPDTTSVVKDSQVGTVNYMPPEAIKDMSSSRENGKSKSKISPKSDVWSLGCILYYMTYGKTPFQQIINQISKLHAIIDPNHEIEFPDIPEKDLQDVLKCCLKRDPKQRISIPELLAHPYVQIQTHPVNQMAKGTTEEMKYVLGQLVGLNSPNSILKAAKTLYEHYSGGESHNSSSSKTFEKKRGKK
- assay.protocol: Mps-1 kinase assay (TR-FRET)
- Type: biochemical
- particulars: Mps1 IC50 [nM], 10 μM ATP, 1 μM peptide substrate, 60 min at 22° C.
quantity.kind: IC50 (nM)
Please give a number only; it is taken to be in nM.

Worked set:
• Cc1cc(-c2cnc3c(NCCC(C)(C)O)cc(Oc4cccc(F)c4)nn23)ccc1C(=O)NC1CC1 = 0.1
• Cc1cc(-c2cnc3c(NCCCC(F)(F)F)cc(Nc4cccc(F)c4F)nn23)ccc1C(=O)NC1CC1 = 0.3
• Cc1cc(-c2cnc3c(NCC(C)(C)O)cc(Sc4c(F)cccc4F)nn23)ccc1C(=O)NC1CC1 = 3.7
• CSc1cc(NCCS(=O)(=O)N2CCOCC2)c2ncc(-c3ccc(C(=O)NC4CC4)c(C)c3)n2n1 = 14.3
• CC(C)CNc1cc(-c2ccc3ncccc3c2)nn2c(-c3ccc(C(=O)NC4CC4)cc3)cnc12 = 2.3

IN: I have this compound here, "Cc1cc(-c2cnc3c(NCC(C)(C)O)cc(Oc4cncnc4)nn23)ccc1C(=O)NC1CC1" , and I need its recorded IC50.
OUT: 0.9

IN: Proceed to "Cc1cc(-c2cnc3c(NCCCO)cc(-c4ccnn4C)nn23)ccc1C(=O)NC1CC1"
OUT: 5.8

IN: And what about the compound "Cc1ccc(F)cc1Nc1cc(NCCC(F)(F)F)c2ncc(-c3ccc(C(=O)NC4CC4)c(C)c3)n2n1" ?
OUT: 0.1

IN: Now try "Cc1cc(-c2cnc3c(NCCC(F)(F)F)cc(Nc4ccccc4CO)nn23)ccc1C(=O)NC1CC1" .
OUT: 0.1

IN: Queued: "CSc1cc(NCc2ccnn2C)c2ncc(-c3ccc(C(=O)NC4CC4)c(C)c3)n2n1"
OUT: 5.6

IN: Moving on to the next compound: "Cc1cc(-c2cnc3c(NCCN4CCCCC4)cc(Oc4cccc(F)c4)nn23)ccc1C(=O)NC1CC1"
OUT: 0.2

IN: Can you check Cc1cc(-c2cnc3c(NCC4CCS(=O)(=O)CC4)cc(Oc4cccnc4)nn23)ccc1C(=O)NC1CC1 [Example 296A] next?
OUT: 0.5

IN: Do the same for "CCNC(=O)c1ccc(-c2cnc3c(NCCOC)cc(Oc4cc(F)ccc4C)nn23)cc1C" please
OUT: 2.9

IN: Moving on to "OCc1ccccc1-c1cc(NCCC(F)(F)F)c2ncc(-c3ccc(C(=S)NC4CC4)cc3)n2n1"
OUT: 2.6

IN: // next record "Cc1cc(-c2cnc3c(NCCC(F)(F)F)cc(Nc4ccc(F)nc4)nn23)ccc1C(=O)NC1CC1"
OUT: 0.1

====

- system.name: N-terminally GST-tagged human full length recombinant Mps-1 kinase (Homo sapiens, UniProt P33981)
- Construct: N-terminally GST-tagged human full length recombinant Mps-1 kinase; purchased Invitrogen, Karslruhe, Germany PV4071
- assay.protocol: Mps-1 kinase assay (TR-FRET)
- Type: biochemical
- particulars: Mps1 IC50 [nM], 10 μM ATP, 1 μM peptide substrate, 60 min at 22° C.
Classify: 1 when IC50 is strictly less than 0.3 nM; -1 when IC50 is not.

Take a look at these entries with their results.
* Cc1cc(-c2cnc3c(NCC(C)(C)O)cc(Sc4cccs4)nn23)ccc1C(=O)NC1CC1 | -1
* Cc1cc(-c2cnc3c(NCCC(F)(F)F)cc(Sc4ccccc4O)nn23)ccc1C(=O)NC1CC1 | 1

IN: I wonder whether "COc1cc(F)ccc1Nc1cc(NCC(C)(C)O)c2ncc(-c3ccc(C(=O)NC4CC4)c(C)c3)n2n1" has IC50 below 0.3 nM. Can you tell?
OUT: -1

IN: Queued: "Cc1cc(-c2cnc3c(NCCC(C)(C)O)cc(-c4ccccc4CO)nn23)ccc1C(=O)NC1CC1"
OUT: -1

IN: Try "Cc1cc(-c2cnc3c(NCC(C)(C)N)cc(Oc4ccc(F)c(F)c4)nn23)ccc1C(=O)NC1CC1" next.
OUT: 1

====

- system.name: N-terminally GST-tagged human full length recombinant Mps-1 kinase (Homo sapiens)
- Construct: N-terminally GST-tagged human full length recombinant Mps-1 kinase; purchased Invitrogen, Karslruhe, Germany PV4071
- assay.protocol: Mps-1 kinase assay (TR-FRET)
- Assay type: biochemical
- particulars: Mps1 IC50 [nM], 10 μM ATP, 1 μM peptide substrate, 60 min at 22° C.
quantity.kind: log10 IC50 (log10 of the value in nM)
All values: base-10 log of IC50 in nM.

• C=Cc1cc(NCC(C)(C)O)c2ncc(-c3ccc(C(=O)NC4CC4)c(C)c3)n2n1 = 2.05
• Cc1cc(-c2cnc3c(NCCC(F)(F)F)cc(Oc4cccc(F)c4N)nn23)ccc1C(=O)NC1CC1 = -0.52
• Cc1cc(-c2cnc3c(NCC(C)(C)O)cc(-c4ccc(F)cc4CO)nn23)ccc1C(=O)NC1CC1 = 0.84
• CNC(=O)c1ccc(-c2cnc3c(NCCN4CCOCC4)cc(Oc4ccc(F)c(F)c4)nn23)cc1C = 0.43

IN: Name the recorded log10 IC50 for "Cc1cc(-c2cnc3c(NCC4CNC4)cc(Oc4ccccc4)nn23)ccc1C(=O)NC1CC1" .
OUT: -0.52

IN: Can you check "CCNC(=O)c1ccc(-c2cnc3c(NCCN4CCOCC4)cc(Oc4ccccc4C)nn23)cc1C" next?
OUT: 0.63

IN: Record: Cc1cc(-c2cnc3c(NCC4CCOC4)cc(-c4ccccc4CO)nn23)ccc1C(=O)NC1CC1 (racemic)
OUT: 0.48

IN: Another compound: "Cc1cc(-c2cnc3c(NCCC(F)(F)F)cc(Sc4cc(F)cc(F)c4)nn23)ccc1C(=O)NC1CC1"
OUT: -0.70

IN: And then "Cc1cc(-c2cnc3c(NCC(C)(C)O)cc(Oc4ccc(F)c(Cl)c4)nn23)ccc1C(=O)NC1CC1" , what is it?
OUT: -0.30

====

// reported log10(IC50) per item
- system.name: N-terminally GST-tagged human full length recombinant Mps-1 kinase (Homo sapiens)
- Construct: N-terminally GST-tagged human full length recombinant Mps-1 kinase; purchased Invitrogen, Karslruhe, Germany PV4071
- assay.protocol: Mps-1 kinase assay (TR-FRET)
- Type: biochemical
- particulars: Mps1 IC50 [nM], 10 μM ATP, 1 μM peptide substrate, 60 min at 22° C.
- Protocol: The human kinase Mps-1 phosphorylates a biotinylated substrate peptide. Detection of the phosphorylated product is achieved by time-resolved fluorescence resonance energy transfer (TR-FRET) from Europium-labelled anti-phospho-Serine/Threonine antibody as donor to streptavidin labelled with cross-linked allophycocyanin (SA-XLent) as acceptor. Compounds are tested for their inhibition of the kinase activity. […]
Note: values are log10 of IC50 expressed in nM.

- Cc1cc(-c2cnc3c(NCCC(F)(F)F)cc(Oc4ccccc4F)nn23)ccc1C(=O)NC1CC1: -0.40
- Cc1cc(-c2cnc3c(NCCC(C)CO)cc(-c4ccccc4CO)nn23)ccc1C(=O)NC1CC1 (racemic): 0.63
- CC(C)(O)CNc1cc(-c2ccc(F)cc2)nn2c(-c3ccc(C(=S)NC4CC4)cc3)cnc12: 0.63
- Cc1cc(-c2cnc3c(NCC4CCS(=O)(=O)C4)cc(Oc4cccc(F)c4)nn23)ccc1C(=O)NC1CC1 (stereo not shown): -0.52
- Cc1cc(-c2cnc3c(NCC(F)F)cc(Oc4cccc(F)c4)nn23)ccc1C(=O)NC1CC1: -1.00

Would you kindly look at the next entry?
IN: Given "Cc1ccc(F)c(Oc2cc(NCC(C)(C)O)c3ncc(-c4ccc(C(=O)NC5CC5)c(C)c4)n3n2)c1" , state its recorded log10(IC50).
OUT: -0.70
